Could you please report measured growth inhibition for the items listed next?
test.details: NCI Yeast Anticancer Drug Screen. Data for the bub3 strain (AID 167)
experimental.parameters: S. cerevisiae bub3 mutant strain, at 50.0 µM, active compounds read high
Protocol: Growth inhibition of yeast strains with defined genetic alterations is measured as a screen for potential anti-cancer activity. Selected strains with alterations in DNA damage repair or cell cycle control were exposed to compounds and growth inhibition was measured relative to vehicle treated controls. The strain used in this assay is bub3
Compounds without any hit were thinned out: in the full panel of roughly 79,000, 15% have a hit.
The reply should contain only the number, in %.

INPUT: Write down growth inhibition measured for item Cc1cc2c(c(=O)o1)C(C)CC(c1c(O)cc(C)oc1=O)O2 (stereo unspecified)
OUTPUT: 14.1

INPUT: Write down growth inhibition measured for item C=CCCC12CCCC(=O)C1Sc1ccc3ccccc3c12 (stereo unspecified)
OUTPUT: 35.3

INPUT: Write down growth inhibition measured for item c1ccc(COC[C@H]2O[C@@H](c3ccccc3)C[C@@H](OCc3ccccc3)C2OCc2ccccc2)cc1 (stereo partly specified)
OUTPUT: -11.6

INPUT: Write down growth inhibition measured for item CC1(C)SC(C)(C)C1=O
OUTPUT: 2.05

INPUT: Write down growth inhibition measured for item COc1ccc([N+](=O)[O-])c(OC)c1
OUTPUT: -23.4

INPUT: Write down growth inhibition measured for item CCOC(=O)C1(C(=O)OCC)CCC(C(OC)OC)C(CC(=O)OC)C1 (stereo unspecified)
OUTPUT: 26.4

INPUT: Write down growth inhibition measured for item COc1ccc(C2OC(=O)C(=O)C2=O)cc1OC (stereo unspecified)
OUTPUT: 8.7

INPUT: Write down growth inhibition measured for item O=P(c1ccccc1)(c1ccccc1)C(O)c1ccncc1 (stereo unspecified)
OUTPUT: -23

INPUT: Write down growth inhibition measured for item CCOC(=C[P+](c1ccccc1)(c1ccccc1)c1ccccc1)OCC
OUTPUT: -3.6

INPUT: Write down growth inhibition measured for item CC(=O)Nc1cscc1NC(C)=O
OUTPUT: 16.9

INPUT: Write down growth inhibition measured for item CC(=O)NCc1cc([N+](=O)[O-])ccc1O
OUTPUT: -3.55

INPUT: Write down growth inhibition measured for item CC(=O)OCC1OC(n2nnc(CCl)c2CCl)C(OC(C)=O)C(OC(C)=O)C1OC(C)=O (stereo unspecified)
OUTPUT: -0.25

INPUT: Write down growth inhibition measured for item CCCCC(CC)C1OCC(O)CO1 (stereo unspecified)
OUTPUT: -13.2

INPUT: Write down growth inhibition measured for item CC(O)C1CCCCC1O (stereo unspecified)
OUTPUT: -9.6

INPUT: Write down growth inhibition measured for item COC(=O)C1CSCN1 (stereo unspecified)
OUTPUT: -3.5

INPUT: Write down growth inhibition measured for item Cc1nc(Cl)nc2c1C(=O)Nc1ccccc1N2
OUTPUT: 28.1

INPUT: Write down growth inhibition measured for item CC(=O)COc1ccccc1
OUTPUT: -6.85

INPUT: Write down growth inhibition measured for item CCN(C)c1nc(N(C)CC)c2nc(N(C)CC)nc(N(C)CC)c2n1
OUTPUT: -14.5

INPUT: Write down growth inhibition measured for item O=c1cc(-c2ccc(O)cc2)oc2cc(O)cc(O)c12
OUTPUT: -20.9

INPUT: Write down growth inhibition measured for item COC(=O)C(Cc1cn(C(C)=O)c2ccccc12)P(=O)(OC)OC (stereo unspecified)
OUTPUT: 25.4

INPUT: Write down growth inhibition measured for item N=c1ccccn1CC(O)COc1ccccc1 (stereo unspecified)
OUTPUT: 4.2

INPUT: Write down growth inhibition measured for item COc1cc2c3c(c1)nc(C)n3C(=O)C(c1ccccc1)S2 (stereo unspecified)
OUTPUT: 21.6

INPUT: Write down growth inhibition measured for item COC(=O)/C(=N\NC(=S)NN)C(C(=O)C(=O)Nc1ccccc1C(N)=O)c1nc2ccccc2[nH]c1=O (stereo unspecified)
OUTPUT: -4.5

INPUT: Write down growth inhibition measured for item CSC(=S)Nc1nc2ccc(Cl)cc2s1
OUTPUT: 17.7

INPUT: Write down growth inhibition measured for item Nc1ccc(O)c(C(=O)O)c1
OUTPUT: 1.35

INPUT: Write down growth inhibition measured for item COc1ccc(N=c2nc3n4c(c(Br)cc(Br)c4n2)NC(C(Br)(Br)Br)=N3)cc1
OUTPUT: 4.35
